Tested on: Enterococcus faecalis
Experiment: Antibacterial activity against Enterococcus faecalis ATCC 700802 after 16 hrs by two-fold serial dilution method
Assay type: functional
Conditions: ATCC 700802, 16 h
testReadout: MIC

// query Requested field: MIC. Item: CC(C)C[C@@H](N)C(=O)N[C@H]1C(=O)N[C@@H](CC(N)=O)C(=O)N[C@H]2C(=O)N[C@H]3C(=O)N[C@H](C(=O)N[C@H](C(=O)O)c4cc(O)cc(O)c4-c4cc3ccc4O)[C@H](O)c3ccc(c(Cl)c3)Oc3cc2cc(c3O[C@@H]2O[C@H](CO)[C@@H](O)[C@H](O)[C@H]2O[C@H]2C[C@](C)(NCc3ccc4ccccc4c3)[C@H](O)[C@H](C)O2)Oc2ccc(cc2Cl)[C@H]1O
// result 16 µg/mL

// query Requested field: MIC. Item: CCCCCCCCCCCN[C@@]1(C)C[C@H](O[C@H]2[C@H](Oc3c4cc5cc3Oc3ccc(cc3Cl)[C@@H](O)[C@@H](NC(=O)[C@H](N)CC(C)C)C(=O)N[C@@H](CC(N)=O)C(=O)N[C@H]5C(=O)N[C@H]3C(=O)N[C@H](C(=O)N[C@H](C(=O)O)c5cc(O)cc(O)c5-c5cc3ccc5O)[C@H](O)c3ccc(c(Cl)c3)O4)O[C@H](CO)[C@@H](O)[C@@H]2O)O[C@@H](C)[C@H]1O
// result 0.5 µg/mL

// query Requested field: MIC. Item: CC(C)=CCC/C(C)=C/CN[C@@]1(C)C[C@H](O[C@H]2[C@H](Oc3c4cc5cc3Oc3ccc(cc3Cl)[C@@H](O)[C@@H](NC(=O)[C@H](N)CC(C)C)C(=O)N[C@@H](CC(N)=O)C(=O)N[C@H]5C(=O)N[C@H]3C(=O)N[C@H](C(=O)N[C@H](C(=O)O)c5cc(O)cc(O)c5-c5cc3ccc5O)[C@H](O)c3ccc(c(Cl)c3)O4)O[C@H](CO)[C@@H](O)[C@@H]2O)O[C@@H](C)[C@H]1O
// result 16 µg/mL

---

Hi there, I'd appreciate the recorded MIC for every entry that follows.
Tested on: Enterococcus faecalis
Assay: Antibacterial activity against Enterococcus faecalis ATCC 700802 after 16 hrs by two-fold serial dilution method
Format: functional
Conditions: ATCC 700802, 16 h
// note: answer is a bare numeric in µg/mL

// query Lab note: need MIC for CCCCCCCCCCCCCN[C@@]1(C)C[C@H](O[C@H]2[C@H](Oc3c4cc5cc3Oc3ccc(cc3Cl)[C@@H](O)[C@@H](NC(=O)[C@H](N)CC(C)C)C(=O)N[C@@H](CC(N)=O)C(=O)N[C@H]5C(=O)N[C@H]3C(=O)N[C@H](C(=O)N[C@H](C(=O)O)c5cc(O)cc(O)c5-c5cc3ccc5O)[C@H](O)c3ccc(c(Cl)c3)O4)O[C@H](CO)[C@@H](O)[C@@H]2O)O[C@@H](C)[C@H]1O on Enterococcus faecalis, anyone have it?
// result 4

// query Lab note: need MIC for CC(C)C[C@@H](N)C(=O)N[C@H]1C(=O)N[C@@H](CC(N)=O)C(=O)N[C@H]2C(=O)N[C@H]3C(=O)N[C@H](C(=O)N[C@H](C(=O)O)c4cc(O)cc(O)c4-c4cc3ccc4O)[C@H](O)c3ccc(c(Cl)c3)Oc3cc2cc(c3O[C@@H]2O[C@H](CO)[C@@H](O)[C@H](O)[C@H]2O[C@H]2C[C@](C)(NCc3cccs3)[C@H](O)[C@H](C)O2)Oc2ccc(cc2Cl)[C@H]1O on Enterococcus faecalis, anyone have it?
// result 32

// query Lab note: need MIC for CN[C@H](CC(C)C)C(=O)N[C@H]1C(=O)N[C@@H](CC(N)=O)C(=O)N[C@H]2C(=O)N[C@H]3C(=O)N[C@H](C(=O)N[C@H](C(=O)O)c4cc(O)cc(O)c4-c4cc3ccc4O)[C@H](O)c3ccc(c(Cl)c3)Oc3cc2cc(c3O[C@@H]2O[C@H](CO)[C@@H](O)[C@H](O)[C@H]2O[C@H]2C[C@](C)(N)[C@H](O)[C@H](C)O2)Oc2ccc(cc2Cl)[C@H]1O on Enterococcus faecalis, anyone have it?
// result 32

// query Lab note: need MIC for CC(C)C[C@@H](N)C(=O)N[C@H]1C(=O)N[C@@H](CC(N)=O)C(=O)N[C@H]2C(=O)N[C@H]3C(=O)N[C@H](C(=O)N[C@H](C(=O)O)c4cc(O)cc(O)c4-c4cc3ccc4O)[C@H](O)c3ccc(c(Cl)c3)Oc3cc2cc(c3O[C@@H]2O[C@H](CO)[C@@H](O)[C@H](O)[C@H]2O[C@H]2C[C@](C)(NCc3c4ccccc4cc4ccccc34)[C@H](O)[C@H](C)O2)Oc2ccc(cc2Cl)[C@H]1O on Enterococcus faecalis, anyone have it?
// result 2

// query Lab note: need MIC for CC(C)CCN[C@@]1(C)C[C@H](O[C@H]2[C@H](Oc3c4cc5cc3Oc3ccc(cc3Cl)[C@@H](O)[C@@H](NC(=O)[C@H](N)CC(C)C)C(=O)N[C@@H](CC(N)=O)C(=O)N[C@H]5C(=O)N[C@H]3C(=O)N[C@H](C(=O)N[C@H](C(=O)O)c5cc(O)cc(O)c5-c5cc3ccc5O)[C@H](O)c3ccc(c(Cl)c3)O4)O[C@H](CO)[C@@H](O)[C@@H]2O)O[C@@H](C)[C@H]1O on Enterococcus faecalis, anyone have it?
// result 32

---

System: Clostridioides difficile
Assay: Antibacterial activity against Clostridium difficile ATCC 700057 after 16 hrs by two-fold serial dilution method
Assay type: functional
Conditions: ATCC 700057, 16 h
Hi there, I'd appreciate the recorded MIC for every entry that follows.
// note: answer is a bare numeric in µg/mL

// query Requested field: MIC. Item: CCC(CC)CN[C@@]1(C)C[C@H](O[C@H]2[C@H](Oc3c4cc5cc3Oc3ccc(cc3Cl)[C@@H](O)[C@@H](NC(=O)[C@H](N)CC(C)C)C(=O)N[C@@H](CC(N)=O)C(=O)N[C@H]5C(=O)N[C@H]3C(=O)N[C@H](C(=O)N[C@H](C(=O)O)c5cc(O)cc(O)c5-c5cc3ccc5O)[C@H](O)c3ccc(c(Cl)c3)O4)O[C@H](CO)[C@@H](O)[C@@H]2O)O[C@@H](C)[C@H]1O
// result 2

// query Requested field: MIC. Item: CCCCCCCCCCCN[C@@]1(C)C[C@H](O[C@H]2[C@H](Oc3c4cc5cc3Oc3ccc(cc3Cl)[C@@H](O)[C@@H](NC(=O)[C@H](N)CC(C)C)C(=O)N[C@@H](CC(N)=O)C(=O)N[C@H]5C(=O)N[C@H]3C(=O)N[C@H](C(=O)N[C@H](C(=O)O)c5cc(O)cc(O)c5-c5cc3ccc5O)[C@H](O)c3ccc(c(Cl)c3)O4)O[C@H](CO)[C@@H](O)[C@@H]2O)O[C@@H](C)[C@H]1O
// result 0.5

// query Requested field: MIC. Item: CC(C)C[C@@H](N)C(=O)N[C@H]1C(=O)N[C@@H](CC(N)=O)C(=O)N[C@H]2C(=O)N[C@H]3C(=O)N[C@H](C(=O)N[C@H](C(=O)O)c4cc(O)cc(O)c4-c4cc3ccc4O)[C@H](O)c3ccc(c(Cl)c3)Oc3cc2cc(c3O[C@@H]2O[C@H](CO)[C@@H](O)[C@H](O)[C@H]2O[C@H]2C[C@](C)(NCc3ccc(Br)cc3)[C@H](O)[C@H](C)O2)Oc2ccc(cc2Cl)[C@H]1O
// result 0.25

// query Requested field: MIC. Item: COc1ccc(CN[C@@]2(C)C[C@H](O[C@H]3[C@H](Oc4c5cc6cc4Oc4ccc(cc4Cl)[C@@H](O)[C@@H](NC(=O)[C@H](N)CC(C)C)C(=O)N[C@@H](CC(N)=O)C(=O)N[C@H]6C(=O)N[C@H]4C(=O)N[C@H](C(=O)N[C@H](C(=O)O)c6cc(O)cc(O)c6-c6cc4ccc6O)[C@H](O)c4ccc(c(Cl)c4)O5)O[C@H](CO)[C@@H](O)[C@@H]3O)O[C@@H](C)[C@H]2O)cc1
// result 0.5

// query Requested field: MIC. Item: CC(C)C[C@@H](N)C(=O)N[C@H]1C(=O)N[C@@H](CC(N)=O)C(=O)N[C@H]2C(=O)N[C@H]3C(=O)N[C@H](C(=O)N[C@H](C(=O)O)c4cc(O)cc(O)c4-c4cc3ccc4O)[C@H](O)c3ccc(c(Cl)c3)Oc3cc2cc(c3O[C@@H]2O[C@H](CO)[C@@H](O)[C@H](O)[C@H]2O[C@H]2C[C@](C)(NCc3cccs3)[C@H](O)[C@H](C)O2)Oc2ccc(cc2Cl)[C@H]1O
// result 0.5

---

Test system: Enterococcus faecalis
Assay: Antibacterial activity against Enterococcus faecalis ATCC 700802 after 16 hrs by two-fold serial dilution method
Format: functional
Conditions: ATCC 700802, 16 h
Hi there, I'd appreciate the recorded MIC for every entry that follows.
// note: answer is a bare numeric in µg/mL

// query Requested field: MIC. Item: CC(C)C[C@@H](N)C(=O)N[C@H]1C(=O)N[C@@H](CC(N)=O)C(=O)N[C@H]2C(=O)N[C@H]3C(=O)N[C@H](C(=O)N[C@H](C(=O)O)c4cc(O)cc(O)c4-c4cc3ccc4O)[C@H](O)c3ccc(c(Cl)c3)Oc3cc2cc(c3O[C@@H]2O[C@H](CO)[C@@H](O)[C@H](O)[C@H]2O[C@H]2C[C@](C)(NCc3ccco3)[C@H](O)[C@H](C)O2)Oc2ccc(cc2Cl)[C@H]1O
// result 32

// query Requested field: MIC. Item: COc1ccc(CN[C@@]2(C)C[C@H](O[C@H]3[C@H](Oc4c5cc6cc4Oc4ccc(cc4Cl)[C@@H](O)[C@@H](NC(=O)[C@H](N)CC(C)C)C(=O)N[C@@H](CC(N)=O)C(=O)N[C@H]6C(=O)N[C@H]4C(=O)N[C@H](C(=O)N[C@H](C(=O)O)c6cc(O)cc(O)c6-c6cc4ccc6O)[C@H](O)c4ccc(c(Cl)c4)O5)O[C@H](CO)[C@@H](O)[C@@H]3O)O[C@@H](C)[C@H]2O)cc1
// result 16

// query Requested field: MIC. Item: CC(C)C[C@@H](N)C(=O)N[C@H]1C(=O)N[C@@H](CC(N)=O)C(=O)N[C@H]2C(=O)N[C@H]3C(=O)N[C@H](C(=O)N[C@H](C(=O)O)c4cc(O)cc(O)c4-c4cc3ccc4O)[C@H](O)c3ccc(c(Cl)c3)Oc3cc2cc(c3O[C@@H]2O[C@H](CO)[C@@H](O)[C@H](O)[C@H]2O[C@H]2C[C@](C)(NCCC(C)CC(C)(C)C)[C@H](O)[C@H](C)O2)Oc2ccc(cc2Cl)[C@H]1O (stereo partly drawn)
// result 8
